Experiment: ATG_SREBP_CIS: Attagene CIS-FACTORIAL HepG2 Assay for human Sterol Regulatory Element Binding (SREBP) (AID 2282962)
Conditions: HepG2 Attagene cis-factorial SREBP reporter, mRNA; actives raise or lower the signal
The source made the active and inactive calls. Rule for the calls: active = hit-call score of the fitted dose curve at least 0.9, where 1 is the maximum; inactive = score below 0.9.
Could you please pick one outcome from this set? active, inactive

These recorded examples may help you get a feel for the data.
{"columns": ["compound", "label.value"],
 "data": [
  ["CCCCCCCCCCC(CO)CCCCCCCC (stereo not given)", "inactive"],
  ["C#C[C@]1(O)CC[C@H]2[C@@H]3CCC4=Cc5oncc5C[C@]4(C)[C@H]3CC[C@@]21C", "active"],
  ["CC(=O)OCCOC(C)=O", "inactive"]
]}

In: Entry COC(C(=O)O)c1ccccc1 (stereo not given) : call = ?
Out: inactive

In: Entry O=C(O)c1snc(Cl)c1Cl : call = ?
Out: inactive

In: Entry CNCCO : call = ?
Out: inactive

In: Entry CCC(O)CO (stereo not given) : call = ?
Out: inactive

---

Read-out: Vascular endothelial growth factor receptor 2 (Homo sapiens) (UniProt P35968)
Test: BSK_4H_VEGFRII: BioMAP Diversity Plus: 4H Assay for Vascular endothelial growth factor receptor 2 (VEGFR2) Biomarker Activity (AID 2283031)
Conditions: primary human endothelial cells (HUVEC); actives raise or lower the signal
Procedure: BSK_4H is a cell-based, multiplexed-readout assay that uses umbilical vein endothelium, a human vascular primary cell, with measurements taken at 24 hours after chemical dosing in a 96-well plate.BSK_4H_VEGFRII is an assay component measured in the BSK_4H assay. It measures VEGFRII antibody related to regulation of gene expression using ELISA technology.Data from the assay component BSK_4H_VEGFRII was analyzed into 1 assay endpoint. […]
Active and inactive are the calls of the source. How the source made its calls: active means hit-call score of the fitted dose curve at least 0.9, where 1 is the maximum; inactive means score below 0.9.
Could you please pick one outcome from this set? active, inactive

These recorded examples may help you get a feel for the data.
{"columns": ["compound", "label.value"],
 "data": [
  ["CC1COc2ccccc2N1C(=O)C(Cl)Cl (stereo not drawn)", "inactive"],
  ["CCCCC(CC)COC(=O)/C=C\\C(=O)OCC(CC)CCCC (stereo not drawn)", "inactive"],
  ["BrC1CCC(Br)C(Br)CCC(Br)C(Br)CCC1Br (stereo not drawn)", "active"],
  ["CC(=O)O[C@]1(C(C)=O)CC[C@H]2[C@@H]3C[C@H](C)C4=CC(=O)CC[C@]4(C)[C@H]3CC[C@@]21C", "inactive"],
  ["COc1cc(C=O)ccc1OC(=O)C(C)C", "inactive"]
]}

In: Entry O=C1CCCCCCCCCCCCCCO1 : call = ?
Out: inactive

In: Entry CNC[C@H](O)c1cccc(O)c1 : call = ?
Out: inactive

In: Entry CCCCCCCCCCCCCCCCCC(=O)OCC(CC)CCCC (stereo not drawn) : call = ?
Out: inactive

---

Assay: TOX21_p53_BLA_p4_viability: Viability Assessment in the Tox21 HCT-116 p53 Agonism Beta-lactamase Assay, Phase 4 (AID 2283597);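 note: hits lower the luminescence signal meaning cytotoxicity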
From the text: TOX21_p53_BLA_p4 is a cell-based, single-readout assay that uses HCT116, a human intestinal cell line, […] in a 1536-well plate.TOX21_p53_BLA_p4_viability is an assay readout measuring cellular ATP content and detected with CellTiter-Glo Luciferase-coupled ATP quantitation.TOX21_p53_BLA_p4_viability used a type of viability reporter where loss-of-signal activity can be used to understand changes in the cell viability. […]
Records with an inconclusive call do not appear. Active and inactive are the calls of the source. Rule for the calls: active = hit-call score of the fitted dose curve at least 0.9, where 1 is the maximum; inconclusive = response in the unintended direction; inactive = score below 0.9.
Could you please pick one outcome from this set? Yes = active, No = inactive

These recorded examples may help you get a feel for the data.
{"columns": ["molecule", "label.value"],
 "data": [
  ["CCCCCCCCCCCCN(CCCCCCCCCCCC)CCCCCCCCCCCC", "No"],
  ["O=C(O)c1snc(Cl)c1Cl", "No"],
  ["C=C(C)[C@@H]1CC[C@@H](C)C[C@@H]1O", "No"],
  ["CCCCCCCCCCCCCCCCCC(=O)OCC(CC)CCCC (centres undefined)", "No"],
  ["C=CC(=O)OCC(O)COc1ccccc1 (centres undefined)", "Yes"]
]}

In: Entry CC1(C)CCC(C)(C)c2cc(C(=O)Nc3ccc(C(=O)O)cc3)ccc21 : call = ?
Out: Yes

In: Entry CC(=O)O[C@]1(C(C)=O)CC[C@H]2[C@@H]3C[C@H](C)C4=CC(=O)CC[C@]4(C)[C@H]3CC[C@@]21C : call = ?
Out: No

In: Entry CCCCCCCCCCCCN : call = ?
Out: Yes

---

Biological target: Estrogen receptor beta (Homo sapiens)
Assay: OT_ER_ERbERb_1440: Odyssey Thera (OT) 24-hour HEK293T Protein-Complementation Assay for Estrogen Receptor-beta/-beta Homodimer (AID 2283380);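 note: fluorescence gain from ER beta LBD homodimer complementation read by laser scanning cytometry; scored as signal increase over DMSO baseline for both agonists and antagonists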
Activity calls are given as the source filed them. The calls were made as follows: active = hit-call score of the fitted dose curve at least 0.9, where 1 is the maximum; inconclusive = response in the unintended direction; inactive = score below 0.9.
Could you please pick one outcome from this set? active, inactive

{"columns": ["compound", "label.value"],
 "data": [
  ["C=C(C)C(=O)O", "inactive"],
  ["Cc1ccc(S)cc1", "inactive"],
  ["CC1=CC(=O)NS(=O)(=O)O1", "inactive"],
  ["CCCCCCCCC=O", "inactive"],
  ["CC(C)(N)CO", "inactive"],
  ["C[Si](O[Si](C)(C)C)O[Si](C)(C)C", "inactive"]
]}

In: Entry O=C(Oc1ccccc1)c1ccc(O)cc1 : call = ?
Out: active

In: Entry O=C[C@@H](O)[C@H](O)[C@H](O)CO : call = ?
Out: inactive

In: Entry O=C(O)CCCCCCCC(=O)O : call = ?
Out: inactive

---

Molecular target: Retinoic acid receptor RXR-alpha (Homo sapiens) (UniProt P19793)
Sequence (P19793 whole entry, looked up): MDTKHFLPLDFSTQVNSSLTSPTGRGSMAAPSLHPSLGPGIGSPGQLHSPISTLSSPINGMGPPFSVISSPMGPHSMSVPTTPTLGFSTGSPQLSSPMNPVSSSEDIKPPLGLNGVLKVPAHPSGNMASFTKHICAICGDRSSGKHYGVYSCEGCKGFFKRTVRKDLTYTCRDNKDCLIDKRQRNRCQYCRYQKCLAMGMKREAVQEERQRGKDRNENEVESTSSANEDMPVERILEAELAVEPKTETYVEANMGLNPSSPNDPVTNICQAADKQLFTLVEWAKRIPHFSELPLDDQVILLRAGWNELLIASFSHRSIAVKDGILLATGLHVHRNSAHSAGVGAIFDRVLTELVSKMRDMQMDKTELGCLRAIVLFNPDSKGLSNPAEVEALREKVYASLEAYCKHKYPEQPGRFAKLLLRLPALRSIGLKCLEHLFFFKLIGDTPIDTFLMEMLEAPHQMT
Assay: OT_NURR1_NURR1RXRa_1440: Odyssey Thera (OT) 24-hour HEK293T Protein Complementation Assay for Nurr1/retinoid X receptor (RXR) (AID 2283386)
Protocol: OT_NURR1_NURR1RXRa_1440 is a cell-based assay that uses HEK293T, a human kidney cell line, with measurements taken at 24 hours after chemical dosing in a 384-well plate.OT_NURR1_NURR1RXRa_1440 is one of one assay component(s) measured or calculated from the OT_NURR1_NURR1RXRa_1440 assay. […] This assay endpoint, OT_NURR1_NURR1RXRa_1440, was analyzed in the positive analysis fitting direction relative to DMSO as the negative control and baseline of activity. […]
Records with an inconclusive call do not appear. Active and inactive are the calls of the source. The calls were made as follows: active = hit-call score of the fitted dose curve at least 0.9, where 1 is the maximum; inconclusive = response in the unintended direction; inactive = score below 0.9.
assay.metric: outcome

Example entries and their recorded answers appear below.
{"columns": ["compound", "assay.metric", "measured"],
 "data": [
  ["Cc1ccc(O)c(C(C)(C)C)c1", "outcome", "inactive"],
  ["CCCCCC(CO)CCC (stereo not drawn)", "outcome", "inactive"],
  ["CC1=CC(=O)NS(=O)(=O)O1", "outcome", "inactive"],
  ["C=CCOc1nc(OCC=C)nc(OCC=C)n1", "outcome", "inactive"],
  ["NC(=O)Nc1ccc(Cl)cc1", "outcome", "inactive"]
]}

In: With Retinoic acid receptor RXR-alpha (Homo sapiens) (UniProt P19793) as the test system, provide measured outcome for this compound: Cc1ccc(C(C)C)cc1O
Out: inactive

In: With Retinoic acid receptor RXR-alpha (Homo sapiens) (UniProt P19793) as the test system, provide measured outcome for this compound: C=O
Out: inactive

In: With Retinoic acid receptor RXR-alpha (Homo sapiens) (UniProt P19793) as the test system, provide measured outcome for this compound: CCCCCCCCCCCCCCCCCC(=O)OCC(CC)CCCC (stereo not drawn)
Out: inactive

---

Read-out: Monokine induced gamma interferon (MIG), CXCL9 (gene 4283)
Experiment: BSK_CASM3C_MIG: BioMAP Diversity Plus: CASM3C Assay for Monokine induced gamma interferon (MIG) Biomarker Activity (AID 2283048);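 note: MIG protein level measured by ELISA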
Conditions: primary human coronary artery smooth muscle cells; actives raise or lower the signal
Activity calls are given as the source filed them. How the source made its calls: active means hit-call score of the fitted dose curve at least 0.9, where 1 is the maximum; inactive means score below 0.9.
Could you please pick one outcome from this set? active, inactive

These recorded examples may help you get a feel for the data.
{"columns": ["compound", "label.value"],
 "data": [
  ["c1ccc2sc(SN(C3CCCCC3)C3CCCCC3)nc2c1", "inactive"],
  ["COC(=O)c1ccc(C)cc1", "inactive"]
]}

In: Entry N#Cc1ccc(CC(=NNC(=O)Nc2ccc(OC(F)(F)F)cc2)c2cccc(C(F)(F)F)c2)cc1 : call = ?
Out: inactive

In: Entry CC(=O)O[C@]1(C(C)=O)CC[C@H]2[C@@H]3C[C@H](C)C4=CC(=O)CC[C@]4(C)[C@H]3CC[C@@]21C : call = ?
Out: inactive

In: Entry CC(C)c1ccc(C(C)C)cc1 : call = ?
Out: active

In: Entry Cc1cc(C2(c3cc(C)c(O)cc3C)OS(=O)(=O)c3ccccc32)c(C)cc1O : call = ?
Out: inactive

---

Test: BSK_SAg_SRB: Viability Assessment in the BioMAP Diversity Plus: SAg Assay (AID 2283096);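 note: cells read one day after compound addition; hits may be either gain or loss of signal compared with DMSO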
Details: primary human HUVEC with PBMC
Activity calls are given as the source filed them. How the source made its calls: active means hit-call score of the fitted dose curve at least 0.9, where 1 is the maximum; inactive means score below 0.9.
Could you please pick one outcome from this set? 1 (active), 0 (inactive)

These recorded examples may help you get a feel for the data.
{"columns": ["compound", "label.value"],
 "data": [
  ["CC(=O)[C@H]1CC[C@H]2[C@@H]3CC=C4C[C@@H](O)CC[C@]4(C)[C@H]3CC[C@]12C", 0],
  ["CCCCC/C=C/C=C/C=O", 1],
  ["O=[N+]([O-])c1cc(C(F)(F)F)ccc1Cl", 0],
  ["COc1cc(C=O)ccc1OC(=O)C(C)C", 0],
  ["C=C(C)C(=O)O[C@H]1C[C@@H]2CC[C@@]1(C)C2(C)C", 1],
  ["Cc1ccc(O)c(C(C)(C)C)c1", 1],
  ["Cc1ccc2n[nH]nc2c1", 0],
  ["CC[Si](OC(C)=O)(OC(C)=O)OC(C)=O", 0],
  ["O=C1OC2(c3cc(Br)c(O)c(Br)c3Oc3c2cc(Br)c(O)c3Br)c2c(Cl)c(Cl)c(Cl)c(Cl)c21", 1],
  ["CCc1c(C)cc(N)c(CC)c1N", 0]
]}

In: Entry CCCCCCCCCC=O : call = ?
Out: 0

In: Entry CCCCC(CC)COCCC#N (stereo not drawn) : call = ?
Out: 0

In: Entry CN(CCOc1ccc(CC2SC(=O)NC2=O)cc1)c1ccccn1 (stereo not drawn) : call = ?
Out: 0
